- protocol-details: NCI Yeast Anticancer Drug Screen. Data for the mlh1 rad18 strain (AID 175)
- details: S. cerevisiae mlh1 rad18 strain growth inhibition; at 50.0 µM unless noted
- Description: Growth inhibition of yeast strains with defined genetic alterations is measured as a screen for potential anti-cancer activity. Selected strains with alterations in DNA damage repair or cell cycle control were exposed to compounds and growth inhibition was measured relative to vehicle treated controls. The strain used in this assay is mlh1 rad18
This is part of a sample that, as a whole, favours compounds with a hit. Of some 79,000 tested, about 15% had one in any assay. Activity calls are given as the source filed them. Rule as the data show it: active = growth inhibition above about 70%; inactive = the rest. Where a SMILES comes first, the peptide text is derived from it. The star is where a group is joined. Cbz = O=C(OCc1ccccc1)*; OBn = c1ccc(CO*)cc1
Outcomes: active, inactive

molecule=CC[N+]1(CC)CC[N+]2(CC1)CC[N+]1(CC[N+](CC)(CC)CC1)CC2 assigned_category=inactive
molecule="C=CCCCC12CCCc3cccc(c31)NC2=O (stereo not given)" assigned_category=inactive
molecule=C/C=C/C#C/C=C1/C=CC(=O)O1 assigned_category=inactive
molecule=O=C(NC(=S)Nc1ccccc1F)c1cccc([N+](=O)[O-])c1 assigned_category=active
molecule=COc1ccc2c(CSc3ncnc4nc[nH]c34)cc(=O)oc2c1 assigned_category=inactive
molecule=C[C@H]1CC[C@@H]2O[C@@]23C(=O)OC2OC(C)(C)[C@@H]([C@H]2O)[C@]13C assigned_category=inactive
molecule=CCN(CC)c1ccc2c(c1)C(=O)c1ccccc1-2 assigned_category=inactive
molecule="COC(=O)C(Cc1ccc(O)cc1)NC(=O)C(CC(=O)OCc1ccccc1)NC(=O)OCc1ccccc1 (stereo not given) (Cbz-Asp(OBn)-Tyr-OMe; configuration not given here)" assigned_category=inactive
molecule=CC(C)N(C(C)C)S(C)(=O)=O assigned_category=inactive
molecule="CC(=O)OC1c2ccccc2CCCCCCC12OCCO2 (stereo not given)" assigned_category=inactive

###

- protocol-details: NCI Yeast Anticancer Drug Screen. Data for the rad50 strain (AID 155);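 also: 0% = growth of vehicle-only cultures of the same strain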
- details: S. cerevisiae rad50 strain growth inhibition, stronger effect = higher value; at 50.0 µM unless noted
- Experimental: Growth inhibition of yeast strains with defined genetic alterations is measured as a screen for potential anti-cancer activity. Selected strains with alterations in DNA damage repair or cell cycle control were exposed to compounds and growth inhibition was measured relative to vehicle treated controls. The strain used in this assay is rad50
The panel holds about 79,000 compounds, 15% with a hit somewhere; the sample as a whole holds those more often.
Attribute: growth inhibition
attribute-measured: growth inhibition (%)

molecule=Cc1cc(C)c2c(c1)CC(C)(C)CC2=O endpoint_unit=% test_result=4
molecule=Cc1ccc(C2=Nc3cc(C)c(Cl)cc3S(=O)(=O)NN2)cc1 endpoint_unit=% test_result=-29.1
molecule=O=C1OC(c2ccccc2)=N/C1=C/C=C/c1ccco1 endpoint_unit=% test_result=-10.9
molecule=NC1(CC(=O)O)CCN(Cc2ccccc2)CC1 endpoint_unit=% test_result=4.05
molecule=COc1cc(-c2cc(=O)c3c(O)c(OC)c(OC)c(OC)c3o2)cc(OC)c1OC endpoint_unit=% test_result=-9.45
molecule=O=C(O)c1ccc(Cl)o1 endpoint_unit=% test_result=7.7
molecule=N#CCCCCCOCCOCCOCCOCCOCCCCCC#N endpoint_unit=% test_result=12.8
molecule=O=S(=O)(Nc1nccs1)c1ccc(NCc2c3ccccc3nc3cc(Cl)ccc23)cc1 endpoint_unit=% test_result=13.3
molecule=O=[N+]([O-])C(C(Cl)=C(Cl)Cl)=C(N1CCOCC1)N1CCOCC1 endpoint_unit=% test_result=-25.2
molecule=O=C1NC(=S)N/C1=C\c1ccc(Cl)cc1 endpoint_unit=% test_result=-5.75
molecule="Cc1c(Cl)cccc1NC(=O)C(C)NCC(C)C (configuration not stated)" endpoint_unit=% test_result=-4.4
molecule=C=C(C)C(=O)Oc1ccccc1/C=C/C(=O)CCCCCC endpoint_unit=% test_result=-8.45
molecule="CCN1CCC(O)C1 (configuration not stated)" endpoint_unit=% test_result=18.6
molecule=O=C1c2ccccc2C(=O)N1C/C=C/CO endpoint_unit=% test_result=11.5
molecule=O=C(CNc1nncs1)NO endpoint_unit=% test_result=15.1
molecule=Cc1ccc(Nc2nc(-c3ccc(-c4ccc([N+](=O)[O-])cc4)o3)cs2)cc1 endpoint_unit=% test_result=20.5
molecule=CC(=O)COC(=O)c1ccccc1 endpoint_unit=% test_result=32.1
molecule=O=c1[nH]c2ccc(O)cc2o1 endpoint_unit=% test_result=33.2
molecule=CCOC(=O)/C(C#N)=C/c1ccc(C)cc1 endpoint_unit=% test_result=10.4
molecule="CC(O)C(C(=O)O)N(CC1(O)OCC(O)C(O)C1O)N=O (configuration not stated)" endpoint_unit=% test_result=-4.5
molecule=C/C(CCc1ccccc1)=N\NC(N)=S endpoint_unit=% test_result=7.1
molecule="COC(=O)C1CCOC(C)N1C(=O)OC(C)(C)C (configuration not stated)" endpoint_unit=% test_result=2.9
molecule=Cc1cc([N+](=O)[O-])c(Nc2ccc(C)c(Cl)c2)c([N+](=O)[O-])c1 endpoint_unit=% test_result=8.15
molecule=C=C(Br)CNC(=O)C(O)(c1ccccc1)c1ccccc1 endpoint_unit=% test_result=-4.15
molecule="O=C(O)c1ccccc1S(=O)Cc1ccc(Br)cc1 (configuration not stated)" endpoint_unit=% test_result=-10.6
molecule=O=CNc1nc[nH]c1-c1noc(=O)[nH]1 endpoint_unit=% test_result=-2.75
molecule=C/C(=N/O)c1ccncc1 endpoint_unit=% test_result=1.15

The measured values listed here are drawn from PubChem BioAssay (NCI).
